Test system: Akt phosphorylated at Ser473 in PC-3 cells
Protocol notes: Cellular assay: phosphorylation of Akt at Ser473 in PC-3 cells (MSD ELISA)
Type: cell-based
Test parameters: PC-3 cells, 60 min compound incubation, MSD ELISA; read-out: IC50 pAkt_S473
Endpoint: IC50 (nM)

                                    compound  unit_name  qualifier_operator  quantitative_readout
 0  CC(C)NCCNC(=O)c1cc(C(C)Nc2cc(F)cc(F)c2)c2nc(N3CCOCC3)cnc2c1 (single isomer, unassigned) [Compound 211]         nM                   =                    36
 1  CNCCOCCN(C)C(=O)c1cc(C(C)Nc2ccc(F)c(F)c2)c2nc(N3CCOCC3)cnc2c1 (single isomer, unassigned) [Compound 345a]         nM                   =                    79
 2  CC(Nc1ccc(F)c(F)c1)c1cc(C(=O)N2CCN3CCC[C@@H]3C2)cc2ncc(N3CCOCC3)nc12 (single isomer, unassigned) [Compound 347b]         nM                   =                    85
 3  CC(Oc1cccc(F)c1F)c1cc(C(=O)N(C)C)cc2ncc(N3CCOCC3)nc12 (single isomer, unassigned) [Compound 74]         nM                   >                   513
 4  CC(Nc1ccc(F)c(F)c1)c1cc(C(=O)NCCN(C)C)cc2ncc(N3CCOCC3)nc12 (single isomer, unassigned) [Compound 281a]         nM                   =                     5
 5  CC(C)NCCNC(=O)c1cc(C(C)Nc2cc(F)cc(F)c2)c2nc(N3CCOCC3)cnc2c1 (single isomer, unassigned) [Compound 212]         nM                   =                   398
 6  CNCCNC(=O)c1cc([C@@H](C)Oc2cccc(F)c2)c2nc(N3CCOCC3)cnc2c1 [Compound 122a]         nM                   =                    12
 7  CC(Nc1cccc(F)c1)c1cc(C(=O)N2CCC[C@H]2CO)cc2ncc(N3CCOCC3)nc12 (single isomer, unassigned) [Compound 115]         nM                   =                    66
 8  CC(Oc1cc(F)c(F)c(F)c1)c1cc(C(=O)N(C)C2CCNC2)cc2ncc(N3CCOCC3)nc12 (single isomer, unassigned) [Compound 404b]         nM                   =                   398
 9  CC(Nc1ccc(F)c(F)c1)c1cc(C(=O)NCC(C)(C)O)cc2ncc(N3CCOCC3)nc12 (single isomer, unassigned) [Compound 348b]         nM                   >                   513
10  CC(Nc1cc(F)cc(F)c1)c1cc(C(=O)O)cc2ncc(N3CCOCC3)nc12 (stereo not shown) [Compound 83a]         nM                   >                   513
11  CC(Oc1cccc(F)c1)c1cc(CO)cc2ncc(N3CCOCC3)nc12 (single isomer, unassigned) [Compound 89]         nM                   >                   513
12  CC(Nc1cc(F)cc(F)c1)c1cc(C(=O)NS(=O)(=O)C2CC2)cc2ncc(N3CCOCC3)nc12 (single isomer, unassigned) [Compound 220]         nM                   >                   513

###

Assayed target: PI3Kβ (Homo sapiens)
Construct: purchased DiscoveRx Corporation, San Diego (contract service, KINOMEscan)
Protocol notes: Enzyme binding assay (KINOMEscan, DiscoveRx)
Test parameters: PIK3Cβ_h, read-out: Kd PIK3Cβ_h
The following compounds are listed with their measured Kd values.
Endpoint: Kd (nM)

>>> print(df.to_string())
                                    compound  unit_name  quantitative_readout
 0  CC(C)N1CCN(C(=O)c2cc(C3CCCN3c3cc(F)cc(F)c3)c3nc(N4CCOCC4)cnc3c2)CC1 (stereo not shown)         nM                     3
 1  CNCCNC(=O)c1cc(C(C)Nc2cccc(F)c2)c2nc(N3CCOCC3)cnc2c1 (single isomer, unassigned) [Compound 138]         nM                   0.1
 2  CC(Nc1ccc(F)c(F)c1)c1cc(C(=O)NCCO)cc2ncc(N3CCOCC3)nc12 (single isomer, unassigned) [Compound 279a]         nM                     7
 3  CC(Oc1cccc(F)c1F)c1cc(C(=O)N(C)C)cc2ncc(N3CCOCC3)nc12 (single isomer, unassigned) [Compound 73]         nM                     9
 4  O=C(O)c1cc(C2CCCN2c2cc(F)cc(F)c2)c2nc(N3CCOCC3)cnc2c1 (stereo not shown) [Compound 62]         nM                     1
 5  CC(Nc1ccc(F)c(F)c1)c1cc(C(=O)N2CCN3CCC[C@@H]3C2)cc2ncc(N3CCOCC3)nc12 (single isomer, unassigned) [Compound 347a]         nM                  2690
 6  CC(Nc1cc(F)cc(F)c1)c1cc(C(=O)O)cc2ncc(N3CCOCC3)nc12 (single isomer, unassigned) [Compound 83c]         nM                   158
 7  CC(C)NCCNC(=O)c1cc(C(C)Nc2cccc(F)c2)c2nc(N3CCOCC3)cnc2c1 (single isomer, unassigned) [Compound 227]         nM                     1
 8  CC(Nc1cc(F)c(F)c(F)c1)c1cc(C(=O)N2CCCN(C(C)C)CC2)cc2ncc(N3CCOCC3)nc12 (single isomer, unassigned) [Compound 388a]         nM                   933
 9  O=C(c1cc(C2CCCN2c2cc(F)cc(F)c2)c2nc(N3CCOCC3)cnc2c1)N1CC2(C1)CS(=O)(=O)C2 (stereo not shown)         nM                   0.4
10  CCN1CCN(C(=O)c2cc(C(C)Oc3cccc(F)c3)c3nc(N4CCOCC4)cnc3c2)CC1 (stereo not shown) [Compound 90]         nM                    17
11  CC(Nc1cccc(F)c1)c1cc(C(=O)N2CC[C@@H](O)C2)cc2ncc(N3CCOCC3)nc12 (single isomer, unassigned) [Compound 321b]         nM                   166
12  CC(Nc1ccc(F)c(F)c1)c1cc(C(=O)N(C)C2CCNC2)cc2ncc(N3CCOCC3)nc12 (stereo not shown) [Compound 323b]         nM                     1

###

Reported pKd values, kinase enzymes (Homo sapiens).
pKd: −log10 of the molar value.
Endpoint: pKd

>>> print(df.to_string())
                                   compound  quantitative_readout
0  CN(Cc1cc(F)cc(F)c1)c1cc(C(=O)N2CCNC(C(F)(F)F)C2)cc2ncc(N3CCOCC3)nc12 (stereo not shown) [Compound 319b]                  5.36
1  C[C@@H](Nc1cc(F)cc(F)c1)c1cc(C(=O)NCCN(C)C)cc2ncc(N3CCOCC3)nc12 [Compound 184b]                  6.23
2  CN[C@H]1CCN(C(=O)c2cc(NCc3cc(F)cc(F)c3)c3nc(N4CCOCC4)cnc3c2)C1                  5.64
3  CN(C)C(=O)c1cc([C@@H]2CCCN2c2cc(F)cc(F)c2)c2nc(N3CCOCC3)cnc2c1                  4.91

###

Assayed target: PI3Kβ (Homo sapiens, UniProt P42338)
Construct: purchased DiscoveRx Corporation, San Diego (contract service, KINOMEscan)
Sequence (P42338 whole entry): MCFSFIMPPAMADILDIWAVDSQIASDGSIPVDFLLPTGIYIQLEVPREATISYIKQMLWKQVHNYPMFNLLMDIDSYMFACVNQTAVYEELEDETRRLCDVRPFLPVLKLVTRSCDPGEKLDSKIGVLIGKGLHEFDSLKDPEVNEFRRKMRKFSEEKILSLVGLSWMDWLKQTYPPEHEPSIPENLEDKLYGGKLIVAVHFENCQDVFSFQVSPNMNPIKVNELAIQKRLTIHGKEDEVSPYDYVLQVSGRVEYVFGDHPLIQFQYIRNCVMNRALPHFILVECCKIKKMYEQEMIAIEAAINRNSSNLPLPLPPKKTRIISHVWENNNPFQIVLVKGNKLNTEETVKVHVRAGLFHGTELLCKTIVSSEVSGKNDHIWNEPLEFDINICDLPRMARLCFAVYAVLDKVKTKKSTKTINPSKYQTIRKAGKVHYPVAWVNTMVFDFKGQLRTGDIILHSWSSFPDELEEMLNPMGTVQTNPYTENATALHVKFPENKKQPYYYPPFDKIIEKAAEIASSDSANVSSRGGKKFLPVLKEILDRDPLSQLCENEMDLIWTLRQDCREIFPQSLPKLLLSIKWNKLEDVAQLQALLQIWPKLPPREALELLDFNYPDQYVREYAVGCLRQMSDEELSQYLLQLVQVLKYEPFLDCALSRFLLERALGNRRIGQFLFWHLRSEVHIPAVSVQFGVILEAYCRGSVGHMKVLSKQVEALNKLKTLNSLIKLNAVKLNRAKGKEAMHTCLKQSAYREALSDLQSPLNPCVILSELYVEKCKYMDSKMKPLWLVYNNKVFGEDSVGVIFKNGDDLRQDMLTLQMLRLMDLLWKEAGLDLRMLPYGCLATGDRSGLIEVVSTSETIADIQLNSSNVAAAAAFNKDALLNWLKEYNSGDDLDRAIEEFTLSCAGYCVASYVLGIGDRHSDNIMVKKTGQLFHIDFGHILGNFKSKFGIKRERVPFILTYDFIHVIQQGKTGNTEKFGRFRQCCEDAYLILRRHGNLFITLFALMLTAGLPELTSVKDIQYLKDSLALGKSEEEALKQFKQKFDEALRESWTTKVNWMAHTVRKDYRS
Protocol notes: Enzyme binding assay (KINOMEscan, DiscoveRx)
Test parameters: PIK3Cβ_h, read-out: Kd PIK3Cβ_h
pKd: −log10 of the molar value.
The following compounds are listed with their measured pKd values.
Endpoint: pKd

>>> print(df.to_string())
                                   compound  quantitative_readout
0  Cc1c(F)cccc1CN(C)c1cc(C(=O)N2CC3(C2)CS(=O)(=O)C3)cc2ncc(N3CCOCC3)nc12                  6.49
1  CC(C)NCCNC(=O)c1cc(C(C)Nc2cc(F)c(F)c(F)c2)c2nc(N3CCOCC3)cnc2c1 (single isomer, unassigned) [Compound 283a]                  8.15
2  CC(Nc1cc(F)cc(F)c1)c1cc(C(=O)NC(C)(C)CO)cc2ncc(N3CCOCC3)nc12 (stereo not shown)                  8.10
3  C[C@H](Nc1cc(F)cc(F)c1)c1cc(C(=O)NCCN(C)C)cc2ncc(N3CCOCC3)nc12                  7.54
